# System: KRas wild type
# assay method text: Ras GTP Binding Domain Inhibition Assay (Ras Superfamily Assay)
# measurement setup: 20 μM compound, with SOS
measured metric: KRas wild type + SOS: % inh.

// known answers, use as guide
COc1cc(-c2cn3nc(-c4nccn4C)nc(N[C@@H]4CC[C@H](OC)C4)c3c2C)ccn1 (racemic) [Compound 164] ... A (A = 1-25% inhibition)
COC1CCCN(c2nc(-c3ccccn3)nn3cc(-c4ccn(C(C)C)n4)c(C)c23)C1 (racemic) [Compound 12] ... 0 (0 = 0% inhibition)
Cc1c(-c2ccn(C(C)C)n2)cn2nc(-c3ccccn3)nc(O)c12 [Compound 8] ... 0 (0 = 0% inhibition)
COc1cccc(-c2cn3nc(-c4nccn4C)nc(N[C@@H]4CC[C@H](OC)C4)c3c2-c2ccccc2)c1Cl (racemic) [Compound 33] ... 0 (0 = 0% inhibition)
Cc1c(-c2ccn(C3CC3)n2)cn2nc(-c3nccn3C)nc(O)c12 [Compound 134] ... 0 (0 = 0% inhibition)
CO[C@H]1CC[C@@H](Nc2nc(-c3nccn3C)nn3cc(-c4ccn(C(C)C)n4)c(C)c23)C1 (racemic) [Compound 1] ... A (A = 1-25% inhibition)
Cc1c(-c2ccn(C)n2)cn2nc(-c3nccn3C)nc(Nc3nccn3C)c12 [Compound 106] ... 0 (0 = 0% inhibition)
Cc1c(-c2ccn(C(C)C)n2)cn2nc(-c3nccn3C)nc(Nc3ccncc3)c12 [Compound 52] ... A (A = 1-25% inhibition)

Qu. Please respond with reported KRas wild type + SOS: % inh. (system KRas wild type) for COc1cc(Nc2nc(-c3nccn3C)nn3cc(-c4ccn(C(F)F)n4)c(C)c23)ncn1 [Compound 98] .
Ans. A (A = 1-25% inhibition)

Qu. Write down measured KRas wild type + SOS: % inh. (KRas wild type) for this molecule. Cn1ccnc1-c1nc(O)c2c(-c3ccccc3)ccn2n1 [Compound 39]
Ans. A (A = 1-25% inhibition)

Qu. Using KRas wild type as the test system, report measured KRas wild type + SOS: % inh. of COCCNC(=O)c1c(-c2ccn(C)n2)cn2nc(-c3nccn3C)nc(N[C@H]3CC[C@H](OC)C3)c12 (racemic) [Compound 183] .
Ans. A (A = 1-25% inhibition)

###

# Tested on: KRas G12C mutant
# assay method text: Ras GTP Binding Domain Inhibition Assay (Ras Superfamily Assay)
# measurement setup: 20 μM compound, without SOS
measured metric: KRas G12C mutant: % inh.

// worked examples, KRas G12C mutant: % inh. included
CO[C@H]1CC[C@@H](Nc2nc(-c3nccn3C)nn3cc(-c4ccn(C(C)C)n4)c(C(C)C)c23)C1 (racemic) [Compound 36] ... A (A = 1-25% inhibition)
COc1ccc(Nc2nc(-c3nccn3C)nn3cc(-c4ccn(C(C)C)n4)c(C)c23)cn1 [Compound 71] ... 0 (0 = 0% inhibition)
COc1cccc(-c2cn3nc(-c4nccn4C)nc(O)c3c2C)c1Cl [Compound 15] ... 0 (0 = 0% inhibition)
COc1cccc(Nc2nc(-c3nccn3C)nn3cc(-c4ccn(C(C)C)n4)c(-c4ccccc4)c23)n1 [Compound 23] ... A (A = 1-25% inhibition)
Cc1c(-c2ccn(C(C)C)n2)cn2nc(-c3nccn3C)nc(Nc3ncco3)c12 [Compound 60] ... A (A = 1-25% inhibition)

Qu. Quickly give me recorded KRas G12C mutant: % inh. for COc1cccc(-c2cn3nc(-c4nccn4C)nc(N[C@H]4C[C@@H](OC)C4)c3c2-c2ccccc2)c1Cl [Compound 31]
Ans. A (A = 1-25% inhibition)

Qu. Dear colleague, please send me the reported KRas G12C mutant: % inh. for Cc1c(-c2ccn(C(C)C)n2)cn2nc(-c3nccn3C)nc(Nc3noc(C4CC4)n3)c12 [Compound 75] when you can.
Ans. A (A = 1-25% inhibition)

Qu. Recall and state the measured KRas G12C mutant: % inh. for COCCCNc1nc(-c2nccn2C)nn2cc(-c3cccc(OC)c3Cl)c(-c3ccccc3)c12 [Compound 30] .
Ans. A (A = 1-25% inhibition)

Qu. State its KRas G12C mutant: % inh.: COCCNc1nc(-c2nccn2C)nn2cc(-c3cccc(OC)c3Cl)c(-c3ccccc3)c12 [Compound 29]
Ans. 0 (0 = 0% inhibition)

###

# Tested on: KRas wild type
# assay method text: Ras GTP Binding Domain Inhibition Assay (Ras Superfamily Assay)
# measurement setup: at 20 μM, with SOS
measured metric: KRas wild type + SOS: % inh.

COc1cccc(-c2cn3nc(-c4nccn4C)nc(N[C@@H]4CC[C@H](OC)C4)c3c2-c2ccccc2)c1C (racemic) [Compound 271] ... A (A = 1-25% inhibition)
COCCNc1nc(-c2nccn2C)nn2cc(-c3cccnc3)c(-c3ccccc3)c12 [Compound 195] ... 0 (0 = 0% inhibition)
Cc1c(-c2ccn(C)n2)cn2nc(-c3nccn3C)nc(Nc3cc(C(F)F)[nH]n3)c12 [Compound 258] ... 0 (0 = 0% inhibition)
CO[C@H]1C[C@H](Nc2nc(-c3nccn3C)nn3cc(-c4cccc(OCCN)c4)c(-c4ccccc4)c23)C1 [Compound 205] ... A (A = 1-25% inhibition)

###

# Test system: KRas G12D mutant
# assay method text: Ras GTP Binding Domain Inhibition Assay (Ras Superfamily Assay)
# measurement setup: 20 μM compound, without SOS
measured metric: KRas G12D mutant: % inh.

Consider the worked cases shown below.
Cc1c(-c2ccn(C(C)C)n2)cn2nc(-c3nccn3C)nc(Nc3ccncc3)c12 [Compound 52] ... A (A = 1-25% inhibition)
COCCO[C@H]1C[C@H](Nc2nc(-c3nccn3C)nn3cc(-c4ccn(C(C)C)n4)c(C)c23)C1 [Compound 92] ... A (A = 1-25% inhibition)
COc1ncccc1Nc1nc(-c2nccn2C)nn2cc(-c3ccn(C(C)C)n3)c(C)c12 [Compound 85] ... 0 (0 = 0% inhibition)
CO[C@H]1CC[C@H](Nc2nc(-c3nccn3C)nn3cc(-c4ccn(C)n4)c(C(=O)NCC(F)(F)F)c23)C1 (racemic) [Compound 181] ... A (A = 1-25% inhibition)
COc1cc(Nc2nc(-c3nccn3C)nn3cc(-c4ccn(C(C)C)n4)c(C)c23)ccn1 [Compound 87] ... A (A = 1-25% inhibition)

Query compound follows.
Qu. Identify measured KRas G12D mutant: % inh. corresponding to COCCNC(=O)c1c(-c2ccn(C)n2)cn2nc(-c3nccn3C)nc(N[C@H]3CC[C@H](OC)C3)c12 (racemic) [Compound 183]
Ans. A (A = 1-25% inhibition)

###

# system tested: Rac-1 (Homo sapiens, UniProt P63000)
# Construct: made in house
# assay method text: Ras GTP Binding Domain Inhibition Assay (Ras Superfamily Assay)
# measurement setup: read-out: Rac-1: % inh.
measured metric: inhibition at 20 µM

Qu. Note inhibition at 20 µM for the compound shown: COc1ccnc(Nc2nc(-c3nccn3C)nn3cc(-c4cnn(C(C)C)c4)c(C)c23)c1
Ans. 50 to 75%

Qu. Give the measured inhibition at 20 µM for Cc1c(-c2ccn(C)n2)cn2nc(-c3nccn3C)nc(Nc3ccc(OC(F)F)cn3)c12
Ans. 76 to 100%

Qu. Give reported inhibition at 20 µM value for Cc1c(-c2ccn(C(C)C)n2)cn2nc(-c3nccn3C)nc(Nc3ncccn3)c12
Ans. 76 to 100%

Qu. Please look at this compound and report its inhibition at 20 µM: COc1cccc(-c2cn3nc(-c4nccn4C)nc(N[C@H]4C[C@H](OC)C4)c3c2-c2ccn(C)n2)c1F
Ans. 0%

Qu. Supply measured inhibition at 20 µM of CC(C)n1ccc(-c2cn3nc(-c4nccn4C)nc(O)c3c2-c2ccccc2)n1 in your reply.
Ans. 50 to 75%

Qu. Tell me measured inhibition at 20 µM for COc1cccnc1Nc1nc(-c2nccn2C)nn2cc(-c3ccn(C)n3)c(C)c12 please.
Ans. 0%

Qu. Please report the measured inhibition at 20 µM for COc1cccc(-c2cn3nc(-c4nccn4C)nc(N[C@@H]4CC[C@@H](OC)C4)c3c2-c2ccccc2)c1F (racemic)
Ans. 1 to 25%

Qu. Report inhibition at 20 µM, nothing else, for this compound: Cc1c(-c2ccn(C)n2)cn2nc(-c3nccn3C)nc(Nc3cc(OC(F)F)n(C)n3)c12
Ans. 76 to 100%

###

# Tested on: KRas G12D mutant
# assay method text: Ras GTP Binding Domain Inhibition Assay (Ras Superfamily Assay)
# measurement setup: at 20 μM, without SOS
# Excerpt: Biological Example 3: Ras GTP Binding Domain Inhibition Assay The assays described in Example 3 are collectively referred to as the “Ras Superfamily Assay” throughout this application. […] The small GTPases proteins: KRas wild type. KRas Q61H mutant, KRas G12C mutant, KRas G12D mutants, Rac-1, and Rho-A were expressed as His-tagged proteins. In addition, the Guanosine nucleotide Exchange Factor (GEF) Sos protein (residues 556-1049) was expressed as a His-tagged protein. […]
measured metric: KRas G12D mutant: % inh.

Guide cases for KRas G12D mutant: % inh., answers given:
CO[C@H]1C[C@H](Nc2nc(-c3nccn3C)nn3cc(-c4ccccc4)c(-c4ccccc4)c23)C1 ... 0 (0 = 0% inhibition)
CO[C@H]1CC[C@H](Nc2nc(-c3nccn3C)nn3cc(-c4cccnc4)c(-c4ccccc4)c23)C1 (racemic) ... A (A = 1-25% inhibition)
COc1cccc(-c2cn3nc(-c4nccn4C)nc(N[C@H]4C[C@H](OC)C4)c3c2-c2ccccc2)c1OC ... A (A = 1-25% inhibition)
COCCNc1nc(-c2nccn2C)nn2cc(-c3cccnc3)c(-c3ccccc3)c12 ... A (A = 1-25% inhibition)
Cc1c(-c2ccn(C)n2)cn2nc(-c3nccn3C)nc(Nc3cc(C(F)F)[nH]n3)c12 ... 0 (0 = 0% inhibition)

Qu. Fill in reported KRas G12D mutant: % inh. for this entry: CO[C@H]1C[C@H](Nc2nc(-c3nccn3C)nn3cc(-c4cccc5c4CCO5)c(-c4ccccc4)c23)C1
Ans. A (A = 1-25% inhibition)

Qu. Write down KRas G12D mutant: % inh. measured for item COc1cccc(-c2cn3nc(-c4nccn4C)nc(N[C@H]4C[C@H](OC)C4)c3c2-c2ccccc2)c1C
Ans. A (A = 1-25% inhibition)

Source: patent US12459951B2
